Record form. Attribute: MIC. Fill in for each entry.
- Test system: M. tuberculosis H37Rv mutant 5O (trpB D261G)
- Assay type: cell-based, Mycobacterium tuberculosis
Please respond with the number in µM and leave the unit unwritten.

Req: // Input: NNC(=O)c1ccncc1 [INH, isoniazid, reference compound] . Output its MIC only.
Resp: 0.12

Req: // Input: Nc1cccc2[nH]ccc12 [4-AI, 4-aminoindole, reference compound] . Output its MIC only.
Resp: 100

Req: // Input: CNS(=O)(=O)c1ccc2c(c1)CCN2C(=O)c1ccc(C)s1 [C5, reference compound] . Output its MIC only.
Resp: 0.19

Req: // Input: `O=C(Nc1cccc2[nH]ccc12)c1ccc(OCC(F)(F)F)cn1` . Output its MIC only.
Resp: 25

Req: // Input: O=C(COc1ccccc1)Nc1cccc2[nH]ccc12 [C2, N-(1H-indol-4-yl)-2-phenoxyacetamide] . Output its MIC only.
Resp: 25

Cited source: paper PMC8379015
